target: Neuronal acetylcholine receptor; assay: Inhibition of [3H]MCC binding to rat brain membranes; assay type: cell membranes, Membrane
Measurement type: IC50 (nM)
I only need the number, in nM, no unit after it.

Reference set, count: 2
c1cc2c(cn1)C1CCC(CC2)N1 (stereo not drawn); 10
CN1C2CCc3ccncc3C1CC2 (stereo not drawn); 3000

Entry Cc1nccc2c1C1CCC(CC2)N1 (stereo not drawn) — recorded IC50 = 700

---

This section presents compounds with their documented ED50 values.
species: Rattus norvegicus; test: Effective dose required to produce prostration after injection into rat's fourth ventricle; format: functional
I only need the number, in nmol, no unit after it.

c1cc2c(cn1)C1CCC(CC2)N1 (stereo not given); 10

Now consider the entry below.
Entry CN1C2CCc3ccncc3C1CC2 (stereo not given) — recorded ED50 = 500

---

target: Acetylcholine receptor (Torpedo californica, UniProt P02710+P02712+P02714+P02718); experiment: Inhibition of [3H]MCC binding to torpedo electroplax membranes
Sequence (P02710 whole entry): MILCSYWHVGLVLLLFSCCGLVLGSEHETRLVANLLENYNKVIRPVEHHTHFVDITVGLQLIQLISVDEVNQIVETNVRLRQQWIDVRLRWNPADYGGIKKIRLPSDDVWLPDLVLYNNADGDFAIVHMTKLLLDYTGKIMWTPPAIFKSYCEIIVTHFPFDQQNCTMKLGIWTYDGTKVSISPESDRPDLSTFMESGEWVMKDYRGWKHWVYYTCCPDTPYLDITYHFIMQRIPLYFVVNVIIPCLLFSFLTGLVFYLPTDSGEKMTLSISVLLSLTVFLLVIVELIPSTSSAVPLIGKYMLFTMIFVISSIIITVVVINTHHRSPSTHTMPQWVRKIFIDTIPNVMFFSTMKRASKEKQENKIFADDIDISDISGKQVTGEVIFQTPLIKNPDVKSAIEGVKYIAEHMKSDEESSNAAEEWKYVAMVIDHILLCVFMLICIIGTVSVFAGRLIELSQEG
Sequence (P02712 whole entry): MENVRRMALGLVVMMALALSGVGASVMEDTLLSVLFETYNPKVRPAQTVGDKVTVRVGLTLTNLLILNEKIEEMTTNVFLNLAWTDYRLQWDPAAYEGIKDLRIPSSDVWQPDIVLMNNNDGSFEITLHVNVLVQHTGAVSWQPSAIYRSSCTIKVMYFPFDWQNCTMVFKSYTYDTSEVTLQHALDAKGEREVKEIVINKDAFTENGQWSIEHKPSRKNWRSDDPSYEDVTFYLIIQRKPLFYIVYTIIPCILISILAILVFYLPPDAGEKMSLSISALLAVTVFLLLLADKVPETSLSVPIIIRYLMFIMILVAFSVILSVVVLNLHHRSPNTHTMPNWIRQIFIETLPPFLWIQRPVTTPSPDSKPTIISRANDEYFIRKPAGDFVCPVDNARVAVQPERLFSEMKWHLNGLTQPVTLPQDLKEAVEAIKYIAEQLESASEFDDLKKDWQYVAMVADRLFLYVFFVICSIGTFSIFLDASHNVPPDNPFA
Sequence (P02718 whole entry): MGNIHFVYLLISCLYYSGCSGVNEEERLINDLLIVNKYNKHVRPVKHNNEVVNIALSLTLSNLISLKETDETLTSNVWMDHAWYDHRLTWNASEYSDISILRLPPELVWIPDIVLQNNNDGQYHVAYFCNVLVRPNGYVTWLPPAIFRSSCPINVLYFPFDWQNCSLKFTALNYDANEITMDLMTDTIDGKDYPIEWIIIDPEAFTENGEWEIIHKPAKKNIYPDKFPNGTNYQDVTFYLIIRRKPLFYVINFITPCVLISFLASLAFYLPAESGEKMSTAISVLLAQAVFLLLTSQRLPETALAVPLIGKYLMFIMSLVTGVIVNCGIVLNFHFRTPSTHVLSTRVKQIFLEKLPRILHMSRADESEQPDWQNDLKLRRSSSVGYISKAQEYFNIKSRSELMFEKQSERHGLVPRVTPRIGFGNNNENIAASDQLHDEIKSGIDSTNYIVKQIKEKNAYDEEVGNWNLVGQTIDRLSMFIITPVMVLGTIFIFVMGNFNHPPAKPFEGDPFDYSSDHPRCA
Sequence (P02714 whole entry): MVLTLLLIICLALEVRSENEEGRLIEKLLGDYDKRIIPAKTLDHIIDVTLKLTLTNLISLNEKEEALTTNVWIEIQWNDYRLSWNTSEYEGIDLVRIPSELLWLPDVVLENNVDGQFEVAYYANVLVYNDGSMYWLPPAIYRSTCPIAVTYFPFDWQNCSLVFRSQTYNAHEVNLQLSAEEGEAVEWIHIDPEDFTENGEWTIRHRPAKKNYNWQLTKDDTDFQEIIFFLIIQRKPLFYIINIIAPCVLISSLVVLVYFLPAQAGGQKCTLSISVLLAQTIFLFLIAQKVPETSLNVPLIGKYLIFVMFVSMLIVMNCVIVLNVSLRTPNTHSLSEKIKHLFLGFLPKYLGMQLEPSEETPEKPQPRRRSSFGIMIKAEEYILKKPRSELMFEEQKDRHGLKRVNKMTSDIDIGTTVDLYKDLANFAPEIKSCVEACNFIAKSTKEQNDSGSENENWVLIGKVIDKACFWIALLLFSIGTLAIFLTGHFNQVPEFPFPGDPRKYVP
Measurement type: pIC50
Answer as the number alone; pIC50 is minus log10 of concentration in mol/L.

Entry CN1CCC[C@H]1c1cccnc1 [NICOTINE] — recorded pIC50 = 9.00

---

organism: Rattus norvegicus; assay: Effective dose required to produce prostration after injection into rat's fourth ventricle; type: functional
This section presents molecules with their documented ED50 values.
I only need the number, in nmol, no unit after it.

Reference set, count: 2
CN1CCC[C@H]1c1cccnc1; 10
Cc1nccc2c1C1CCC(CC2)N1 (stereo not drawn); 500

Now consider the entry below.
Entry c1cncc([C@@H]2CCCN2)c1 — recorded ED50 = 75

---

biological target: Acetylcholine receptor (Torpedo californica, UniProt P02710+P02712+P02714+P02718); test: Inhibition of [3H]MCC binding to torpedo electroplax membranes
Measurement type: IC50 (nM)
I only need the number, in nM, no unit after it.

c1cc2c(cn1)C1CCC(CC2)N1 (centres undefined); 0.1
Cc1nccc2c1C1CCC(CC2)N1 (centres undefined); 300
CN1C2CCc3ccncc3C1CC2 (centres undefined); 2000

Now consider the entry below.
Entry c1cncc([C@@H]2CCCN2)c1 — recorded IC50 = 300
